activation factor reference
TARGET OR SYSTEM: Alkaline phosphatase, tissue-nonspecific isozyme (Homo sapiens) (UniProt P05186)
Sequence (P05186 whole entry, looked up): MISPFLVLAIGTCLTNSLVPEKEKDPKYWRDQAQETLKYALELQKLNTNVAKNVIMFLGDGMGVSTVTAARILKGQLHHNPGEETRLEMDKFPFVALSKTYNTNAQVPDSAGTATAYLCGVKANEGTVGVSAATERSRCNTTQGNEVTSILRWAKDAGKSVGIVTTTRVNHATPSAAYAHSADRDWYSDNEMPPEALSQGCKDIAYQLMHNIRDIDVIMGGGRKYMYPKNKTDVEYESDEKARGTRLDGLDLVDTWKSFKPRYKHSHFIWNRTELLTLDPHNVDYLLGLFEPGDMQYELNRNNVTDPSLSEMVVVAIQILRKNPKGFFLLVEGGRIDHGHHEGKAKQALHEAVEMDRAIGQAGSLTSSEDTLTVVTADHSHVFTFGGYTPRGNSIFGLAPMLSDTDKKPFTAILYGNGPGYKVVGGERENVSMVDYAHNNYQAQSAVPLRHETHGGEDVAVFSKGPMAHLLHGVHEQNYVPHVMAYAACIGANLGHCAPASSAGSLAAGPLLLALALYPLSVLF
EXPERIMENTAL DETAILS: TNAP activators at high phosphate acceptor level, primary screen, biochemical, luminescence, uHTS (AID 1136)
RUN PARAMETERS: purified TNAP, CDP-star luminescence, 1 M DEA, 30 min; at 20 µM; stronger effect = higher value; 0 = EDTA background, 1 = DMSO-only activity
Hit rate of the full screen: of about 200,000 compounds, fewer than 10 were called active. Not all results are given here.
Answer with the value's number alone.

Sample records with activation factor:
[[record]]
compound = "CCNc1nc(-c2cc3ccccc3o2)cs1"
property_name = "activation factor"
recorded_value = 1.1

[[record]]
compound = "CC(NC(=O)c1cccc2ccccc12)c1ccc2c(c1)CCCC2 (stereo not drawn)"
property_name = "activation factor"
recorded_value = 1

[[record]]
compound = "COc1ccc(Sc2nc(-c3ccccc3)ncc2OC)cc1"
property_name = "activation factor"
recorded_value = 1

[[record]]
compound = "Oc1cccc(C2c3[nH]c4ccccc4c3CCN2Cc2cnn(-c3ccccc3)c2)c1 (stereo not drawn)"
property_name = "activation factor"
recorded_value = 1

[[record]]
compound = "COc1ccc(Cl)cc1C(=O)NNC(=S)NC(=O)/C=C/c1ccco1"
property_name = "activation factor"
recorded_value = 1.1


Quick note, activation factor for O=C(CNC(c1ccccc1)c1ccccc1)Nc1ccc(F)cc1 landed at 1

Quick note, activation factor for COc1ccc(NS(=O)(=O)c2cc(NC(=O)/C=C/c3cc(OC)c(OC)c(OC)c3)ccc2N2CCCCC2)cc1 landed at 1

Quick note, activation factor for CCOC(=O)c1ccccc1NC(=O)CSc1nc2ccccc2c(=O)[nH]1 landed at 1

----------
activation factor reference
TARGET OR SYSTEM: Alkaline phosphatase, tissue-nonspecific isozyme (Homo sapiens) (UniProt P05186)
EXPERIMENTAL DETAILS: TNAP activators at high phosphate acceptor level, primary screen, biochemical, luminescence, uHTS (AID 1136)
RUN PARAMETERS: purified TNAP, CDP-star luminescence, 1 M DEA, 30 min; at 20 µM; stronger effect = higher value; 0 = EDTA background, 1 = DMSO-only activity
The whole screen tested about 200,000 compounds, of which fewer than 10 were called active. Not all results are given here.
Answer with the value's number alone.

[[record]]
compound = "CCCc1nc2c([nH]1)C(c1cccnc1)C(C#N)=C(N)O2 (configuration not stated)"
recorded_value = 1

[[record]]
compound = "CCOc1ccc(C(=O)NCCCN2CCCC2=O)cc1"
recorded_value = 1

[[record]]
compound = "N=C1C(c2nc3ccccc3[nH]2)=C(O)CN1NC(=O)c1c[nH]c2ccccc12"
recorded_value = 1.1

[[record]]
compound = "O=C(N/N=C/c1ccc(OCC2COCCO2)cc1)c1ccc(Br)cc1 (configuration not stated)"
recorded_value = 1

[[record]]
compound = "CN1CCN(CC(=O)Nc2cccc([N+](=O)[O-])c2)CC1"
recorded_value = 1

[[record]]
compound = "Cc1cc(/C=C2/NC(=O)NC2=O)c(C)n1-c1cccnc1"
recorded_value = 1.1


Quick note, activation factor for C=CS(=O)c1sc(Cl)c(N2CCOCC2)c1[N+](=O)[O-] (configuration not stated) landed at 1

Quick note, activation factor for CC(=O)N1CCc2cc(Br)cc(S(=O)(=O)CCC(=O)Nc3c(C)n(C)n(-c4ccccc4)c3=O)c21 landed at 1

Quick note, activation factor for CCn1c(COc2ccccc2)nnc1SCC(=O)NCc1ccco1 landed at 1

Quick note, activation factor for CCOc1ccc(C(C)=O)cc1CSc1nnc(-c2ccncc2)n1CCOC landed at 1

----------
TARGET OR SYSTEM: Alkaline phosphatase, tissue-nonspecific isozyme (Homo sapiens)
EXPERIMENTAL DETAILS: TNAP activators at high phosphate acceptor level, primary screen, biochemical, luminescence, uHTS (AID 1136)
RUN PARAMETERS: purified TNAP, CDP-star luminescence, 1 M DEA, 30 min; at 20 µM; stronger effect = higher value; 0 = EDTA background, 1 = DMSO-only activity
In all, about 200,000 compounds went through this assay and fewer than 10 were called active. The list is a sample of the results.
activation factor reference
Answer with the value's number alone.

[[record]]
molecule = "CCc1ccccc1NC(=S)N(CCN1CCCCCC1)Cc1ccco1"
recorded_value = 1

[[record]]
molecule = "Cc1ccc(C2(C(F)(F)F)N=C3Sc4cc(C)cc(C)c4N3C(=O)N2)cc1 (configuration not stated)"
recorded_value = 1

[[record]]
molecule = "Cc1ccc(C)c2[nH]c(=O)c(CCNC(=O)c3cccs3)cc12"
recorded_value = 1

[[record]]
molecule = "COc1ccc(OC)c(C2C3=C(N=c4s/c(=C\\c5cccc(O)c5)c(=O)n42)c2ccccc2CC3)c1 (configuration not stated)"
recorded_value = 0.9

[[record]]
molecule = "COc1ccccc1CN(C)C(=O)C1(c2ccc(Cl)cc2)CC1"
recorded_value = 1

[[record]]
molecule = "O=C(NCCc1ccccc1)C1CCC(Cn2c(=O)c3ccccc3n(Cc3cccnc3)c2=O)CC1 (configuration not stated)"
recorded_value = 0.9


From here, focus on the item given below.
Quick note, activation factor for CC(=O)c1cccc(NC(=O)[C@@H](NC(N)=O)C(C)C)c1 landed at 1

----------
activation factor reference
TARGET OR SYSTEM: Alkaline phosphatase, tissue-nonspecific isozyme (Homo sapiens)
EXPERIMENTAL DETAILS: TNAP activators at high phosphate acceptor level, primary screen, biochemical, luminescence, uHTS (AID 1136)
RUN PARAMETERS: purified TNAP, CDP-star luminescence, 1 M DEA, 30 min; at 20 µM; stronger effect = higher value; 0 = EDTA background, 1 = DMSO-only activity
In all, about 200,000 compounds went through this assay and fewer than 10 were called active. Not all results are given here.
Answer with the value's number alone.

Quick note, activation factor for N#CCOc1ccc(C2=NO[C@@H]3[C@@H]4C[C@@H]([C@H]5C(=O)N(c6ccc7c(c6)OCO7)C(=O)[C@@H]45)[C@H]23)cc1 landed at 1

Quick note, activation factor for O=C(Cc1c(F)cccc1Cl)Nc1ccc(-n2cnnn2)cc1 landed at 1

Quick note, activation factor for O=C(CN1CCN(c2ccc(O)cc2)CC1)NC1CCCc2ccccc21 (configuration not stated) landed at 1

Quick note, activation factor for Cc1nnsc1C(=O)N/N=C/c1cccc(C(F)(F)F)c1 landed at 1

Quick note, activation factor for Cc1cccc(C)c1NC(=O)Nc1ccccc1-n1ccnc1 landed at 1.1

Quick note, activation factor for CCCC(=O)n1nc(NCc2ccc(OC)cc2)nc1NCc1ccc(OC)cc1 landed at 1

Quick note, activation factor for COc1ccc(C)cc1NC(=O)CSc1nnc(CC(=O)Nc2ccccc2F)n1C landed at 1.1

Quick note, activation factor for Cc1cccc(NC(=O)/C=C/c2ccc3c(c2)OCO3)n1 landed at 1

Quick note, activation factor for COCC(C)NC(=O)COc1nncc2ccccc12 (configuration not stated) landed at 1.1

Quick note, activation factor for COc1ccc(C(=O)CSc2nc(C)cc(C)n2)cc1[N+](=O)[O-] landed at 1

Quick note, activation factor for CCN(CC)CCNC(=O)c1ccc(NS(=O)(=O)c2ccc3c(c2)OCCO3)cc1 landed at 1

Quick note, activation factor for COc1ccc(/C(C)=N/NC(=O)CCC(=O)Nc2ccc(Cl)cc2Cl)c(OC)c1 landed at 0.9
